Assay: binders from COS7 lysate, DM2A8 probe, primary screen, torsin A project, cell lysate, small-molecule microarray, fluorescence 635/667 (AID 1065)
Details: higher = more signal, COS7 lysate expressing mutant human TOR1A
Category key, based on recorded composite z-score: small value = under -0.1, mid value = from -0.1 up to 0.3, large value = 0.3 and over

compound=COCCOC(=O)N1C(=O)[C@@]2(c3cc(C#CCCO)ccc31)[C@H](C(=O)NC[C@H](O)c1ccccc1)[C@H]1C(=O)O[C@H](c3ccccc3)[C@H](c3ccccc3)N1[C@@H]2c1ccccc1OCCO assigned_category="mid value"
compound="C=CCC(OC(C)=O)[C@@H]1[C@@H](N(Cc2cccc3ccccc23)C(=O)Cc2ccc(F)cc2)c2cc(OCCCO)ccc2N1C(=O)Cc1ccc(OC)cc1 (some centres not stated)" assigned_category="mid value"
compound=[N-]=[N+]=NCc1ccccc1[C@H]1OC(c2ccc(OCCCO)cc2)=N[C@@]1(Cc1ccccc1)C(N)=O assigned_category="mid value"
compound=COCCCNC(=O)[C@@]1(C)c2ccccc2C(=O)N(c2ccc(C)cn2)[C@H]1c1ccc(CO)cc1 assigned_category="small value"

query: Categorize the following entry: CN(C)CCCN1C(=O)[C@@]2(Cc3ccccc31)c1ccccc1C(=O)N(Cc1ccccc1)[C@H]2c1ccc(CO)cc1
result: mid value

query: Next record, please: C=C(COC)C(=O)CC[C@H](OC(=O)c1ccccc1-c1ccccc1C(=O)O)c1ccc(CO)o1
result: small value

query: Same read-out for C[C@H]1NC(=O)C([C@@H](C)OCc2ccccc2)NC(=O)[C@@]23C(=O)N[C@@H](Cc4ccccc4)C2[C@H](C)[C@@]2(C)O[C@H]2C3/C=C/CC/C=C/CNC1=O (some centres not stated) ?
result: mid value

query: What do you have for C=CC[C@]1(C(=O)NCC(O)CO)N=C(c2ccc(OCCCO)cc2)O[C@H]1c1ccccc1N=[N+]=[N-] (some centres not stated) ?
result: small value

query: Param item: COC(=O)[C@@]1(Cc2ccc(F)cc2)[C@@H]2[C@@H](CC(=O)[C@H]2CC(=O)C(=O)N2CCCC2)CN1C(=O)c1ccccc1
result: small value

query: Param item: CO[C@H]1O[C@H](CO)[C@@H](OC(=O)Nc2ccc(C(F)(F)F)cc2)[C@H](OC(=O)Nc2ccccc2)[C@H]1OC(=O)Nc1ccccc1
result: large value

query: Similarly, COCCCNC(=O)[C@]1(Cc2ccccc2CN=[N+]=[N-])N=C(c2ccc(OCCCO)cc2)O[C@@H]1c1ccccc1CN=[N+]=[N-] ?
result: large value
